assayName: qHTS assay to test for compound auto fluorescence at 590 nm (red) in HepG2 cells (AID 720674)
assayConditions: HepG2 autofluorescence, red 540/590 nm, 1 h; series mostly up to 91.3 µM
Calls of active or inactive are those of the source. Calls follow the shape of the dose curve; as a rule, active = well fitted curve in the direction sought with a large enough effect in the repeat runs; inconclusive = weak or mixed curves; inactive = flat fitted curve, though single readings scatter.
propertyName: outcome

{"columns": ["compound", "reported"],
 "data": [
  ["O=C(O)c1ccc(C(=O)O)c(C(=O)O)c1", "inactive"],
  ["OC1C(O)C(O)C(O)C(O)C1O (centres undefined)", "inactive"],
  ["CN(C)c1ccc(Cc2ccc(N(C)C)cc2)cc1", "inactive"],
  ["COc1cc(OC)c(C(=O)CCCN2CCCC2)c(OC)c1", "inactive"],
  ["CC(=O)CC(C)(C)O", "inactive"],
  ["O=[N+]([O-])c1ccc2nc[nH]c2c1", "inactive"],
  ["CCOCCOCCOCCO", "inactive"],
  ["CCOC(=O)c1ccc(N)cc1", "inactive"],
  ["CC(C)OC(=O)COc1ccc(Cl)cc1Cl", "inactive"],
  ["NCCNCCN", "inactive"],
  ["O=C(OCC1CCC2OC2C1)C1CCC2OC2C1 (centres undefined)", "inactive"],
  ["C[C@]12CCC(=O)C=C1CC[C@@H]1[C@@H]2[C@@H](O)C[C@@]2(C)[C@H]1CC[C@]2(O)C(=O)CO", "inactive"],
  ["CCCCCCCO", "inactive"],
  ["C=CCc1ccc(OC)c(OC)c1", "inactive"],
  ["CC1(C)CC(N)CC(C)(CN)C1 (centres undefined)", "inactive"],
  ["C[C@]12CC[C@@H]3c4ccc(O)cc4CC[C@H]3[C@@H]1C[C@@H](O)[C@@H]2O", "inactive"],
  ["CN(C)CCOC(=O)COc1ccc(Cl)cc1", "inactive"],
  ["Nc1ccc(Cl)c(N)c1", "inactive"],
  ["CCCCCCCCCCO", "inactive"],
  ["CN/C(=C\\[N+](=O)[O-])NCCSCc1csc(CN(C)C)n1", "inactive"],
  ["COc1ccc(CCC(C)=O)cc1", "inactive"],
  ["CC(C)c1cccc(C(C)C)c1", "inactive"],
  ["CCCCOC(=O)c1ccc(N)cc1", "inactive"],
  ["CN(C)c1ccc(O)c2c1C[C@H]1C[C@H]3[C@H](N(C)C)C(=O)C(C(N)=O)=C(O)[C@@]3(O)C(=O)C1=C2O", "inactive"],
  ["C=Cc1ccc(C)cc1", "inactive"],
  ["O=C(O)CCCCCCCCC(=O)O", "inactive"],
  ["CC(=O)CCC=C(C)C", "inactive"],
  ["C=CC(C)CCCC(C)(C)O (centres undefined)", "inactive"],
  ["CC(O)CC(C)(C)O (centres undefined)", "inactive"],
  ["CC(=O)OCc1ccco1", "inactive"],
  ["CCCOC(=O)c1ccccc1", "inactive"],
  ["NCCCCCCN", "inactive"],
  ["CCCCCCCC=O", "inactive"],
  ["Cc1ccc(S(=O)(=O)N=C=O)cc1", "inactive"]
]}
